molecular target: Pantothenate synthetase (Mycobacterium tuberculosis (strain ATCC 25618 / H37Rv), UniProt P9WIL5); assay: Binding Assay; conditions: pH 7.6; 25 °C
Sequence (P9WIL5 whole entry): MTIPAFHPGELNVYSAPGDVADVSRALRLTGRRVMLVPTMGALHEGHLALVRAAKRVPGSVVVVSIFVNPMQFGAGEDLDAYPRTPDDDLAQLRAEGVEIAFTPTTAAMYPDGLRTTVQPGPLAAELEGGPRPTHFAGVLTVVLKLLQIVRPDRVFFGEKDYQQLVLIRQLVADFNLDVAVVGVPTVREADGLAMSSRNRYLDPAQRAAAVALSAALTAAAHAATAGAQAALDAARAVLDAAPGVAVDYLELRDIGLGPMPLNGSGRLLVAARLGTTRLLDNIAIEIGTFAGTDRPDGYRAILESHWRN
Metric Name: pKd
Give bare numbers, as −log10 of the molar value.

The value of pKd measured for the compound Nc1ncnc2c1ncn2[C@@H]1O[C@H](CSSCC(O)CO)[C@@H](O)[C@H]1O (stereo partly specified) turned out to be 3.24

Entry source: BindingDB's records for doi:10.1002/cbic.200900537
